# testedTarget: EGFR T790M/L858R/C797S (Homo sapiens, UniProt P00533, C797S/L858R/T790M)
# Construct: expressed in transfected cells; host or cells: BaF3 (murine pro-B) cells stably transduced with pCDH lentiviral vector, PGK promoter
# Sequence (P00533 25-1210 T790M/C797S/L858R): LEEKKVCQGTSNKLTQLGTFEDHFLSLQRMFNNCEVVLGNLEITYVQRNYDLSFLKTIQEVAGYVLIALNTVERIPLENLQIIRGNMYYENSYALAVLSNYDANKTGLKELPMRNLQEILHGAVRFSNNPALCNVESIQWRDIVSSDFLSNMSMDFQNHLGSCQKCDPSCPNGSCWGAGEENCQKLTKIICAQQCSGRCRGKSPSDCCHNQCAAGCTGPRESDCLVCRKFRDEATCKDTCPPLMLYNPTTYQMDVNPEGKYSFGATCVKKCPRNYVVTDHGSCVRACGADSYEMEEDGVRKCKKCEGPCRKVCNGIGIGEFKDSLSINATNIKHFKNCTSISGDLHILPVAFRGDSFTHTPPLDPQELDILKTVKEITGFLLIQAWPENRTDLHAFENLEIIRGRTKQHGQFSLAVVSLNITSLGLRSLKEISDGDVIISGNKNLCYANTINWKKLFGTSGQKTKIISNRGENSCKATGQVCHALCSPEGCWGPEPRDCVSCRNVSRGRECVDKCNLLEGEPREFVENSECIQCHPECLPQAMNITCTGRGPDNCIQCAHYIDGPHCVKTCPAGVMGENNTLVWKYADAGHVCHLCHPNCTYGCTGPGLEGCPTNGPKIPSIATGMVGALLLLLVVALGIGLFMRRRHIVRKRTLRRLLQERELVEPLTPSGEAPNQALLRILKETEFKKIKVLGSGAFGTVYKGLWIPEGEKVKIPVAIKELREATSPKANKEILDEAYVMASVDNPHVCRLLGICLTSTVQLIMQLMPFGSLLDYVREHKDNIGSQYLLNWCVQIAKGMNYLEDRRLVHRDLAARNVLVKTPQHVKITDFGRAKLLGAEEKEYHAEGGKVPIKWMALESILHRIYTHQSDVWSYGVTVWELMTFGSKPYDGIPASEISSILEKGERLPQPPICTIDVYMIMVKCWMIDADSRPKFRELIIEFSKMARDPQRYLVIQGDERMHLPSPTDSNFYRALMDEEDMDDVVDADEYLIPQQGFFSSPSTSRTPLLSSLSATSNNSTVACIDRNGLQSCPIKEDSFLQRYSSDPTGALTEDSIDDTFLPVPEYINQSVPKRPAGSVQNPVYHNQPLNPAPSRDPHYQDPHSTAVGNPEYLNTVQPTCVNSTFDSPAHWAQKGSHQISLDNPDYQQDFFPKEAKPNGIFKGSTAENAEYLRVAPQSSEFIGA
# assayDetails: EGFR Degradation Assay (Cellular), FRET quantification of total EGFR
# Assay type: cell-based
# experimentalContext: BaF3 EGFR mutant cell line (EGFR T790M/L858R/C797S); 4-hour incubation; total EGFR FRET kit; top concentration 1 μM, 11 points; read-out: IC50 [nM] mutant EGFR degradation
resultType: DC50

Field: example entries. Status: answers known.
*Q* Give the reported DC50 for this molecule. CO[C@@H]1CCN(c2nccc(Nc3cc4c(cn3)c(C(=O)NC3CCN(CCCCCCNc5cccc6c5C(=O)N(C5CCC(=O)NC5=O)C6=O)CC3)nn4C(C)C)n2)C[C@@H]1F (mixture of isomers) [Example 21]
*A* 2 nM

*Q* Give the reported DC50 for this molecule. CO[C@H]1CCN(c2nccc(Nc3cc4c(cn3)c(C(=O)NC3CCN(C(=O)N5CCN(CCCCNc6cccc7c6C(=O)N(C6CCC(=O)NC6=O)C7=O)CC5)CC3)cn4C3CCCC3)n2)C[C@H]1F (mixture of isomers) [Example 13]
*A* 30 nM

*Q* Give the reported DC50 for this molecule. CO[C@H]1CCN(c2nccc(Nc3cc4c(cn3)c(C(=O)NC3CCN(CCCCCCNc5cccc6c5C(=O)N(C5CCC(=O)NC5=O)C6=O)CC3)cn4C(C)C)n2)C[C@H]1F (mixture of isomers) [Example 7]
*A* 70 nM

Continuing:
*Q* Give the reported DC50 for this molecule. CO[C@H]1CCN(c2nccc(Nc3cc4c(cn3)c(C(=O)NC3CCN(CCCC5CCN(c6cccc7c6C(=O)N(C6CCC(=O)NC6=O)C7=O)CC5)CC3)cn4C(C)C)n2)C[C@H]1F (mixture of isomers) [Example 12]
*A* 69 nM

*Q* Give the reported DC50 for this molecule. CO[C@H]1CCN(c2nccc(Nc3cc4c(cn3)c(C(=O)NC3CCN(CCC[C@H]5CC[C@H](Nc6cccc7c6C(=O)N(C6CCC(=O)NC6=O)C7=O)CC5)CC3)cn4C(C)C)n2)C[C@H]1F (mixture of isomers) [Example 20]
*A* 15 nM

----------
# testedTarget: EGFR T790M/L858R/C797S (Homo sapiens, UniProt P00533, C797S/L858R/T790M)
# Construct: expressed in transfected cells; host or cells: BaF3 (murine pro-B) cells stably transduced with pCDH lentiviral vector, PGK promoter
# assayDetails: EGFR Degradation Assay (Cellular), FRET quantification of total EGFR
# Type: cell-based
# experimentalContext: BaF3 EGFR mutant cell line (EGFR T790M/L858R/C797S); 4-hour incubation; total EGFR FRET kit; top concentration 1 μM, 11 points; read-out: IC50 [nM] mutant EGFR degradation
Readings of log10(DC50) for the listed molecules
Note the log scale: values are log10 of DC50 expressed in nM.

Field: example entries. Status: answers known.
*Q* Give the reported log10(DC50) for this molecule. COC1CCN(c2nccc(Nc3cc4c(cn3)c(C(=O)NC3CCN(C(=O)CCCCCNc5cccc6c5C(=O)N(C5CCC(=O)NC5=O)C6=O)CC3)cn4C(C)C)n2)CC1 (racemic)
*A* 1.77

*Q* Give the reported log10(DC50) for this molecule. CO[C@H]1CCN(c2nccc(Nc3cc4c(cn3)c(C(=O)NC3CCN(CCCC5CN(c6cccc7c6C(=O)N(C6CCC(=O)NC6=O)C7=O)C5)CC3)cn4C(C)C)n2)C[C@H]1F (mixture of isomers)
*A* 0.70

*Q* Give the reported log10(DC50) for this molecule. CO[C@H]1CCN(c2nccc(Nc3cc4c(cn3)c(C(=O)NC3CCN(CCCCNc5cccc6c5C(=O)N(C5CCC(=O)NC5=O)C6=O)CC3)cn4C(C)C)n2)C[C@H]1F (mixture of isomers)
*A* 1.61

Continuing:
*Q* Give the reported log10(DC50) for this molecule. CO[C@H]1CCN(c2nccc(Nc3cc4c(cn3)c(C(=O)NC3CCN(CCC5CN(c6cccc7c6C(=O)N(C6CCC(=O)NC6=O)C7=O)C5)CC3)cn4C(C)C)n2)C[C@H]1F (mixture of isomers)
*A* 0.90

*Q* Give the reported log10(DC50) for this molecule. CO[C@H]1CCN(c2nccc(Nc3cc4c(cn3)c(C(=O)NC3CCN(CCCOC5CN(c6cccc7c6C(=O)N(C6CCC(=O)NC6=O)C7=O)C5)CC3)cn4C(C)C)n2)C[C@H]1F (mixture of isomers)
*A* 1.41
